assayed target: Mitogen-activated protein kinase; ERK1/ERK2 (Homo sapiens) (UniProt P27361+P28482)
Sequence (P27361 whole entry, looked up): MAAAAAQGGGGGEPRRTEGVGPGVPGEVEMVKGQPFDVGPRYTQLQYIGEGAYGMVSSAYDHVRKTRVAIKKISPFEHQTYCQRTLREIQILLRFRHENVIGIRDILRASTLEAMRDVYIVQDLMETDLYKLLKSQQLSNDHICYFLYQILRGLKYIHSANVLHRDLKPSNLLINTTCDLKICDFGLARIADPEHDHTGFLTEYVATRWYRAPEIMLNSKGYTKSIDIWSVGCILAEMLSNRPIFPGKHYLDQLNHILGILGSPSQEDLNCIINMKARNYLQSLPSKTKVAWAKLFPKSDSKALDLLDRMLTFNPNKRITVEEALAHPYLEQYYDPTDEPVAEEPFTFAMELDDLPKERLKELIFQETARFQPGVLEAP
Sequence (P28482 whole entry, looked up): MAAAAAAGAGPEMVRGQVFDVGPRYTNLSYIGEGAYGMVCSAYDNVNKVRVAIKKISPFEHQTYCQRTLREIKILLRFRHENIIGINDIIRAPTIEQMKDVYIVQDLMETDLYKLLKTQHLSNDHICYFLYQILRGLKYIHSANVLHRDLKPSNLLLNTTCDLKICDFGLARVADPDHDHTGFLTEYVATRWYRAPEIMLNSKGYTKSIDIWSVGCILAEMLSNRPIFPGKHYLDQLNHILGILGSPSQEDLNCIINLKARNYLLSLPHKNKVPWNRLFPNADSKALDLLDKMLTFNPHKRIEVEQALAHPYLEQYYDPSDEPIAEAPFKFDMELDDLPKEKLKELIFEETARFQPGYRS
method description: Inhibition of ERK1/2 phosphorylation in human HeLa cells at 20 uM after 3 hrs by Western blotting analysis
Format: cell-based
Calls of active or inactive are those of the source. The calls are words filed in the database; no cut-off is given here.
readout type: inhibition

Reference set, count: 4
C=C(C)[C@H]1CCC(=C)[C@@H](O)CCC2=C[C@H]1OC2=O = Active
C=C(C)[C@H]1CC[C@]2(C)[C@@H]([N+](=O)[O-])CC[C@@]23C(=O)O[C@@H]1[C@@H]3O = Active
C/C1=C\CC/C(C=O)=C\[C@@H]2[C@@H](CC1)C2(C)C = Active
C/C1=C\CC/C(C=O)=C\[C@H]2[C@@H](C[C@H]1O)C2(C)C = Active

Moving on to the next compound.
## Task Quick one: inhibition for C=C(C)[C@H]1CC/C(C)=C/CCC2=C[C@H]1OC2=O ?
## Result Active
